- ASSAY SUMMARY: Inhibition of cysteine protease in Schistosoma mansoni assessed as reduction in schistosomula viability incubated for 7 days by inverted microscopy analysis
Task for the reader: assign each of the following molecules its reported IC50.
Answers are plain numbers, in µM.

Solved cases below.
CN1CCN(C(=O)N[C@@H](Cc2ccccc2)C(=O)N[C@@H](CCc2ccccc2)CSS(=O)(=O)C2CCCCC2)CC1.O=C(O)C(F)(F)F: 13.5
CN1CCN(C(=O)N[C@@H](Cc2ccccc2)C(=O)N[C@@H](CCc2ccccc2)CSS(=O)(=O)c2ccc([N+](=O)[O-])cc2)CC1.O=C(O)C(F)(F)F: 14.7
Cc1ccc(S(=O)(=O)SC[C@H](CCc2ccccc2)NC(=O)[C@H](Cc2ccccc2)NC(=O)N2CCN(C)CC2)cc1: 26.9
COc1ccc(S(=O)(=O)SC[C@H](CCc2ccccc2)NC(=O)[C@H](Cc2ccccc2)NC(=O)N2CCN(C)CC2)cc1.O=C(O)C(F)(F)F: 13.6

Please go through the list and note IC50 for each molecule.
1. CN1CCN(C(=O)N[C@@H](Cc2ccccc2)C(=O)N[C@@H](CCc2ccccc2)CSS(=O)(=O)c2ccccc2)CC1
2. CN1CCN(C(=O)N[C@@H](Cc2ccccc2)C(=O)N[C@H](/C=C/S(=O)(=O)c2ccccc2)CCc2ccccc2)CC1
3. O[C@@H](c1cc(C(F)(F)F)nc2c(C(F)(F)F)cccc12)[C@H]1CCCCN1 [(S,R)-MEFLOQUINE]

21.4
7.3
0.4

====

- ASSAY SUMMARY: Aqueous stability of the compound in 0.1 M sodium phosphate buffer assessed as half life at pH 8 incubated under shaken condition by HPLC analysis
- Type: physicochemical
MEASUREMENT TYPE: half-life (h)
One number for each entry, in h.

half-life reading for `CN1CCN(C(=O)N[C@@H](Cc2ccccc2)C(=O)N[C@@H](CCc2ccccc2)CSS(=O)(=O)C2CCCCC2)CC1.O=C(O)C(F)(F)F` : 6

====

Task for the reader: assign each of the following molecules its reported half-life.
- ASSAY SUMMARY: Aqueous stability of the compound in 0.1 M sodium phosphate buffer assessed as half life at pH 6 incubated under shaken condition by HPLC analysis
- Type: physicochemical
One number for each entry, in h.

COc1ccc(S(=O)(=O)SC[C@H](CCc2ccccc2)NC(=O)[C@H](Cc2ccccc2)NC(=O)N2CCN(C)CC2)cc1.O=C(O)C(F)(F)F: 1

Consider now this further molecule.
half-life reading for `CN1CCN(C(=O)N[C@@H](Cc2ccccc2)C(=O)N[C@@H](CCc2ccccc2)CSS(=O)(=O)c2ccc([N+](=O)[O-])cc2)CC1.O=C(O)C(F)(F)F` : 1.45

====

- ASSAY SYSTEM: Papain (Carica papaya, UniProt P00784)
- Sequence (P00784 whole entry): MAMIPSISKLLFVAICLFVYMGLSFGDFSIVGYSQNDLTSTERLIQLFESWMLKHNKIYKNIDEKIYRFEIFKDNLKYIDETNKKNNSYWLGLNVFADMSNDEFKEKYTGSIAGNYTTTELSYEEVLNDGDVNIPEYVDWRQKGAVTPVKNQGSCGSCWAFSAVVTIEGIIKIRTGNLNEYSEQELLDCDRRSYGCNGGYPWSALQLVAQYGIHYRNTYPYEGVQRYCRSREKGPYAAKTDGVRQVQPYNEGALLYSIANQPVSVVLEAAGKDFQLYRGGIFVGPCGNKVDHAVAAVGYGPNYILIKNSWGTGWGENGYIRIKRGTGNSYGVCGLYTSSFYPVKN
Task for the reader: assign each of the following compounds its reported IC50.
Answers are plain numbers, in nM.

Solved cases below.
CN1CCN(C(=O)N[C@@H](Cc2ccccc2)C(=O)N[C@H](/C=C/S(=O)(=O)c2ccccc2)CCc2ccccc2)CC1: 81
COc1ccc(S(=O)(=O)SC[C@H](CCCNC(=N)N)NC(=O)[C@H](Cc2ccccc2)NC(=O)N2CCN(C)CC2)cc1: 124
CN1CCN(C(=O)N[C@@H](Cc2ccccc2)C(=O)N[C@@H](CCc2ccccc2)CSS(=O)(=O)C2CCCCC2)CC1.O=C(O)C(F)(F)F: 168
CN1CCN(C(=O)N[C@@H](Cc2ccccc2)C(=O)N[C@@H](CCCNC(=N)N)CSS(=O)(=O)c2ccccc2)CC1: 168

Consider now this further compound.
IC50 reading for `CN1CCN(C(=O)N[C@@H](Cc2ccccc2)C(=O)N[C@@H](CCCNC(=N)N)CSS(=O)(=O)c2ccc([N+](=O)[O-])cc2)CC1` : 129

====

- ASSAY SUMMARY: Aqueous stability of the compound in 0.1 M sodium phosphate buffer assessed as half life at pH 7 incubated under shaken condition by HPLC analysis
- Type: physicochemical
MEASUREMENT TYPE: half-life (h)
Give bare numbers, in h.

half-life reading for `COc1ccc(S(=O)(=O)SC[C@H](CCc2ccccc2)NC(=O)[C@H](Cc2ccccc2)NC(=O)N2CCN(C)CC2)cc1.O=C(O)C(F)(F)F` : 24
